# assay: Toxicity liver stage against HepG2, at 10uM
# Type: cell-based
# Set-up: test concentration 10 uM, cell line HepG2-A16-CD81EGFP
# details: human, HepG2-A16-CD81EGFP cells; read-out: INHIBITION
reported-metric: cytotoxicity at 10 µM (%)
Entry rule: numbers only, all in %.

O=C(CCn1cccn1)N1C[C@H]2CC[C@@H](C1)N(Cc1ccccn1)C2=O ... -13.6
Cc1cccc2c1nc1n2[C@@H](CNC(=O)c2cnccn2)COC1 ... 6.54
COCCC(C)NCc1ccccc1-n1ccnc1 (centres undefined) ... 1.91

Which cytotoxicity at 10 µM value belongs to Cc1cc(C(=O)N(C)S(C)(=O)=O)ccc1F ?
-38.4

Please do the same for O=C1CC(c2ccc3c(c2)OCO3)c2cn[nH]c2N1 (centres undefined) as well.
13.3

Please do the same for CCOc1cc(F)ccc1NC(=O)N(C)Cc1cnn(C)c1 as well.
-17

Please do the same for NC(=O)c1cc2c(nc1CCOc1ccc(F)cc1)CCC2 as well.
4.22

Please do the same for CCOCCn1nc(C)cc1C(=O)N1CCN(C(C)C)C(CC)C1 (centres undefined) as well.
-14.2

Please do the same for CNC(=O)c1ccc2c(c1)C1(CCN(C(C)C)CC1)C(=O)N2 as well.
12.6

Please do the same for CC(CN1CCCC1=O)NC(=O)Nc1ccccc1Cn1cccn1 (centres undefined) as well.
-1.33

Please do the same for O=C(c1ccccn1)N1C[C@@H](OCc2cccnc2)[C@H]2OCCC[C@@H]21 as well.
-0.187

Please do the same for Cc1ccccc1N1CC2(CCN(S(=O)(=O)C3CC3)C2)CC1=O (centres undefined) as well.
3.12

Please do the same for Cc1nnc2n1CCN(Cc1c(Cl)ccc3cccnc13)C2 as well.
8.25

Please do the same for CC1CN(c2ncnc3c2cnn3C)CCN1c1nccs1 (centres undefined) as well.
7.04

Please do the same for O=C(O)c1cc(-c2ccncc2F)cc(S(=O)(=O)N2CCCCCC2)c1 as well.
-0.2

Please do the same for CS(=O)(=O)NCC1CCCN(Cc2ccccc2F)C1 (centres undefined) as well.
-3.65

Please do the same for O=c1[nH]c(-c2ccc(F)c(F)c2)nc2c1CCNC2 as well.
2.06

Please do the same for COc1cc(CN(C)C(=O)NCCC(=O)NC2CCCC2)ccc1SC as well.
-8.9

====

# assay: Toxicity liver stage against HepG2, at 10uM
# Type: cell-based
# Design: test concentration 10 uM, cell line HepG2-A16-CD81EGFP
# details: human, HepG2-A16-CD81EGFP cells; read-out: INHIBITION
// values below are reported cytotoxicity at 10 µM
Entry rule: numbers only, all in %.

Use the examples below as a reference point.
COC(=O)c1sccc1S(=O)(=O)NCCC(O)c1ccco1 (stereo unspecified) ... -5.98
Cc1nc(CNC(=O)C(C)Oc2ccccc2F)no1 (stereo unspecified) ... 5.43
O=C(c1c[nH]c2ncccc12)N(Cc1ccco1)C1CCCC1 ... 2.07
Cc1n[nH]c(C)c1C1CCCN1C(=O)c1cc(Br)c[nH]1 (stereo unspecified) ... -4.08
CC(C)=CCN1CC2(CCN(Cc3c(F)cccc3F)CC2)CC1=O ... -17
Cc1cc(C)nc(C2(C)CCCN2CCO)n1 (stereo unspecified) ... -3.89

Which cytotoxicity at 10 µM value belongs to Cc1nn(C)c(C)c1CN(C)C(=O)c1cc(NC(=O)C2CC2)n(C)n1 ?
3.38

Please do the same for CCC(CNS(C)(=O)=O)Oc1ccccc1F (stereo unspecified) as well.
-6

Please do the same for O=C(c1cnccn1)N1CC[C@@H]2CO[C@@H](CN3CCCC3)[C@@H]2C1 as well.
-1.19

Please do the same for Cn1cccc1C(=O)NCc1cn2c(n1)CN(CC1CCOC1)CC2 (stereo unspecified) as well.
-99.7

Please do the same for Cn1nc(N2CCCC(C(=O)Nc3nc4ccccc4[nH]3)C2)ccc1=O (stereo unspecified) as well.
1.08
